ASSAY_SYSTEM: hERG (Homo sapiens)
Sequence (Q12809 whole entry): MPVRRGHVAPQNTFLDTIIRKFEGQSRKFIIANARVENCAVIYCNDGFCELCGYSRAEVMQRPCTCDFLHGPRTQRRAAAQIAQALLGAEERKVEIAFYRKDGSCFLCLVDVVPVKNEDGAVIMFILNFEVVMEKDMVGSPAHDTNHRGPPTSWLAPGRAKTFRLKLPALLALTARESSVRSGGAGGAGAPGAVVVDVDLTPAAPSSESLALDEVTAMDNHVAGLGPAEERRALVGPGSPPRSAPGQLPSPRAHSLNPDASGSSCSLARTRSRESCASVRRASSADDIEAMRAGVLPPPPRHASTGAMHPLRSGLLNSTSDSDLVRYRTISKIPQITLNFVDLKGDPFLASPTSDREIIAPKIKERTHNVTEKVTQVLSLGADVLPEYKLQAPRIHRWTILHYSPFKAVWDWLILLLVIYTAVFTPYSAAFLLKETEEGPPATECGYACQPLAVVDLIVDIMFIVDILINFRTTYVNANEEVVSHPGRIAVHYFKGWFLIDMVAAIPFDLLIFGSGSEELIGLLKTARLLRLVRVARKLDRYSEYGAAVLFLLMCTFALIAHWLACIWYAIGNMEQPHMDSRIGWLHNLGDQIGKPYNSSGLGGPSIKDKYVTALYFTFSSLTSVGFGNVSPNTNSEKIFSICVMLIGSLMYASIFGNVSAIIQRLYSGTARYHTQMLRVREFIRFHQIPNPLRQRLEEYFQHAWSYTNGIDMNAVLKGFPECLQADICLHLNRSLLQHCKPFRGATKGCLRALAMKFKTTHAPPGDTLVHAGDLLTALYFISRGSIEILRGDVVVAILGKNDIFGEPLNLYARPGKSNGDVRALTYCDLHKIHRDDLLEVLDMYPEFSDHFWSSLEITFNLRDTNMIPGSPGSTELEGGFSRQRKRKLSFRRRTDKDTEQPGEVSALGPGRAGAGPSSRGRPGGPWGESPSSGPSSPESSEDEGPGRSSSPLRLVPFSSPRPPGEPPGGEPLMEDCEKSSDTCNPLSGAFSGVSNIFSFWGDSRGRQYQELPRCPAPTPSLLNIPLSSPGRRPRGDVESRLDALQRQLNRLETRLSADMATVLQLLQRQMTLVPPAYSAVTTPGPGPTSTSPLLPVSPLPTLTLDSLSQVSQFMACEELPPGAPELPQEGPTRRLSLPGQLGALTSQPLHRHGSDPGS
ASSAY_SUMMARY: Cardiac toxicity assay, hERG inhibition in CHO cells
OBSERVATION_TYPE: IC50 (µM)
Hi! Could you send only the number? It should be in µM, unit omitted.

# value lookup — system hERG (Homo sapiens), readout IC50, item O=C1NC(=O)C(Cc2ccc(OCCN3CCN(C(=O)OCc4cc(Cl)cc(Cl)c4)CC3)cc2)S1 (stereo not shown) 12

----------
ASSAY_SUMMARY: In vitro metabolism assay in liver microsomes
Type: in vitro ADME
EXPERIMENTAL_CONTEXT: liver microsomes; read-out: Clint (intrinsic clearance)
OBSERVATION_TYPE: microsomal CLint (µL/min/mg)
// return numeric value only (unit: µL/min/mg, not printed)

Can you look up the measured microsomal CLint of O=C1NC(=O)C(Cc2ccc(OCCN3CCN(C(=O)OCc4cc(Cl)cc(Cl)c4)CC3)cc2)S1 (stereo not shown) [A-1] for me? 329

----------
ASSAY_SUMMARY: In vitro metabolism assay in liver microsomes
Type: in vitro ADME
EXPERIMENTAL_CONTEXT: microsomes
OBSERVATION_TYPE: half-life

State the recorded half-life for this entry: O=C1NC(=O)C(Cc2ccc(OCCN3CCN(C(=O)OCc4cc(Cl)cc(Cl)c4)CC3)cc2)S1 (stereo not shown) 21 min

----------
ASSAY_SUMMARY: In vitro absorption assay, membrane permeability
Format: in vitro ADME
EXPERIMENTAL_CONTEXT: dog, MDCK; MDCKII, B to A
OBSERVATION_TYPE: Papp B→A
Returns: string containing the numeric result and its unit.

Endpoint output: Papp B→A of O=C1NC(=O)C(Cc2ccc(OCCN3CCN(C(=O)OCc4cc(Cl)cc(Cl)c4)CC3)cc2)S1 (stereo not shown) . Value? 0.8 ×10⁻⁶ cm/s
